- Measurement notes: DSSTox (CPDBAS) Carcinogenic Potency Database Summary SingleCellCall Results
- Protocol conditions: animal chronic carcinogenicity bioassays, CPDB summary call
- Excerpt: The Carcinogenic Potency Database (CPDB) is a unique and widely used international resource of the results of over 6500 chronic, long-term animal cancer tests on over 1500 chemical substances. The CPDB provides easy access to the bioassay literature, with qualitative and quantitative analyses of both positive and negative experiments that have been published over the past 50 years in the general literature and by the National Cancer Institute/National Toxicology Program. […]
Calls of active or inactive are those of the source.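 Rule for the calls: active = a tumor-causing dose value with its tumor site reported for any sex and species group of a rodent or other animal cancer study; inconclusive = only studies judged inadequate by the national testing program; inactive = tested in at least one study, none positive.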
The categories you may choose from are yes for active, no for inactive

Given CC(=O)O[C@H]1CC[C@@]2(C)C(=CC[C@@H]3[C@@H]2CC[C@]2(C)C(=O)CC[C@@H]32)C1 , state the outcome it received in this test.
yes

Given Cc1cc(N=Nc2c(O)ccc3ccccc23)c(S(=O)(=O)O)cc1Cl , state the outcome it received in this test.
yes

Given CC(C)Cc1ccc(C(C)C(=O)O)cc1 (stereo unspecified) , state the outcome it received in this test.
no

Given O=NN1CCOC1 , state the outcome it received in this test.
yes

Given C=C1CC[C@H](O)C/C1=C/C=C1\CCC[C@]2(C)[C@@H]([C@H](C)CC[C@@H](O)C(C)(C)O)CC[C@@H]12 , state the outcome it received in this test.
no

Given O=C(Nc1cccc2c(=O)cc(-c3nn[nH]n3)oc12)c1ccc(OCCCCc2ccccc2)cc1 , state the outcome it received in this test.
no
